TARGET OR TEST SYSTEM: pheromone-biosynthesis-activating neuropeptide receptor (fire ant PBAN-R) (fire ant (Solenopsis invicta))
MEASUREMENT NOTES: phage display selection on Sf9 cells expressing PBAN-R, 3-4 rounds; count of sequenced clones
METRIC NAME: Abundance of phage clones

> print(dat)
                                      binder    result
 1  CVKQGTHFC (loop-constrained by a pair of flanking cysteine (C) residues) [… (SEQ ID NO: 9)]  2 clones
 2  CERVGSHFC (loop-constrained by a pair of flanking cysteine (C) residues) [… (SEQ ID NO: 5)]  3 clones
 3  CMARYMSAC (Cysteine-Cysteine S-S bond at the N- and C-terminal ends) [… (SEQ ID NO: 11)]  2 clones
 4  CQSINGHFC (loop-constrained by a pair of flanking cysteine (C) residues) [… (SEQ ID NO: 8)]  2 clones
 5  CVKLGSHFC (Cysteine-Cysteine S-S bond at the N- and C-terminal ends) [… (SEQ ID NO: 6)]  2 clones
 6  CIVQGSHFC (loop-constrained by a pair of flanking cysteine (C) residues) [… (SEQ ID NO: 7)]  2 clones
 7  CIVQGSHFC (loop-constrained by a pair of flanking cysteine (C) residues) [… (SEQ ID NO: 10)]  2 clones
 8  CIQQGSHFC (loop-constrained by a pair of flanking cysteine (C) residues) [… (SEQ ID NO: 4)]  3 clones
 9  CRGATPMSC (Cysteine-Cysteine S-S bond at the N- and C-terminal ends) [… (SEQ ID NO: 12)]  2 clones
10  CLKIGSHFC (Cysteine-Cysteine S-S bond at the N- and C-terminal ends) [… (SEQ ID NO: 3)]  7 clones
